// data source = ChEMBL document CHEMBL1671624

Property: MIC; scope: individual molecules
Test system: Mycobacterium tuberculosis
Assay: Antibacterial activity against ethambutol-resistant Mycobacterium tuberculosis by microplate Alamar Blue assay
Assay type: functional
Parameter measured: MIC (µg/mL)

1. CCOC(=O)c1c(C)[n+]([O-])c2ccc(Cl)cc2[n+]1[O-] ... 0.39
2. COC(=O)c1c(C)[n+]([O-])c2ccc(C)cc2[n+]1[O-] ... 25
3. Cc1c(C(=O)OCc2ccccc2)[n+]([O-])c2cc(Cl)c(Cl)cc2[n+]1[O-] ... 0.78
4. CCOC(=O)c1c(C)[n+]([O-])c2cc(Cl)c(Cl)cc2[n+]1[O-] ... 0.2

====

System: Mycobacterium tuberculosis
Test: Antibacterial activity against isoniazid-resistant Mycobacterium tuberculosis by microplate Alamar Blue assay
Type: functional
In plain terms, low MIC, meaning strictly below 2 µg/mL, gives y, and everything else gives n.

1. Cc1c(C(=O)OCc2ccccc2)[n+]([O-])c2ccccc2[n+]1[O-] ... y
2. COCCOC(=O)c1c(C)[n+]([O-])c2cc(Cl)c(Cl)cc2[n+]1[O-] ... y
3. Cc1c(C(=O)OCc2ccccc2)[n+]([O-])c2cc(Cl)c(Cl)cc2[n+]1[O-] ... y
4. CCOC(=O)c1c(C)[n+]([O-])c2cc(Cl)c(Cl)cc2[n+]1[O-] ... y
5. CCOC(=O)c1c(C)[n+]([O-])c2ccc(Cl)cc2[n+]1[O-] ... y
6. CCOC(=O)c1c(C)[n+]([O-])c2ccccc2[n+]1[O-] ... y
7. COC(=O)c1c(C)[n+]([O-])c2ccc(C)cc2[n+]1[O-] ... n
8. CCOC(=O)c1c(C)[n+]([O-])c2cc(C)c(C)cc2[n+]1[O-] ... n
9. COC(=O)c1c(C)[n+]([O-])c2cc(C)c(C)cc2[n+]1[O-] ... n
